Measured values drawn from ChEMBL document CHEMBL2203057 for this set.

subject_of_test: UniProt P23975
assay_summary: Displacement of [3H]NE from human NET expressed in HEK293 cells
Format: cell-based
readout_type: IC50 (nM)
Give just the number in nM; leave the unit off.

Give its IC50 value. Item: COC(=O)[C@H]1[C@@H](c2ccc(C)cc2)C[C@@H]2CC[C@H]1N2CC#CCF 31

====

subject_of_test: Sodium-dependent noradrenaline transporter (Homo sapiens)
Sequence (P23975 whole entry): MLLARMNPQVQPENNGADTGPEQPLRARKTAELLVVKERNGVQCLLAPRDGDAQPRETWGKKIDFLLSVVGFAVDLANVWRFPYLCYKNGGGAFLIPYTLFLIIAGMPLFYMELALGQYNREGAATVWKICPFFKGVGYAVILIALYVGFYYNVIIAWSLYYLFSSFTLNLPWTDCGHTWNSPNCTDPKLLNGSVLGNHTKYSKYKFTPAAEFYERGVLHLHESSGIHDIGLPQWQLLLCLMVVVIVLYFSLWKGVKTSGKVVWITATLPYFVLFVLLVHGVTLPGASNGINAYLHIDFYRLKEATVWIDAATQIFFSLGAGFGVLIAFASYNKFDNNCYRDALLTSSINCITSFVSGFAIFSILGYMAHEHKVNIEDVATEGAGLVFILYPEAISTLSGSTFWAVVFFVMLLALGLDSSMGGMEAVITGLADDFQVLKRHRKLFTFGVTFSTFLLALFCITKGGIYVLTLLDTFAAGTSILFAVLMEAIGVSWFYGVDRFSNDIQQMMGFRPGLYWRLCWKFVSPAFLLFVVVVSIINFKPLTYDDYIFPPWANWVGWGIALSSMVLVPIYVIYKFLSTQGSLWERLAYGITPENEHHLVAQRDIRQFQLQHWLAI
assay_summary: Displacement of [3H]nisoxetine from human NET expressed in HEK293 cells
Format: cell-based
readout_type: IC50 (nM)
Give just the number in nM; leave the unit off.

Give its IC50 value. Item: COC(=O)[C@H]1[C@@H](c2ccc(C)cc2)C[C@@H]2CC[C@H]1N2CC#CCF 22.5
